Source of measurements: patent EP4782449A1

Recorded IC50 for the following compounds
Target: SARM1 (Homo sapiens, UniProt Q6SZW1)
Construct: inventors produced full-length SARM1 for NAD enzyme activity experiments, and used it for screening; His (C); made in house; host or cells: HEK293 cells, transient transfection; supernatant of digitonin lysate, no further purification described
Sequence (Q6SZW1 28-724, species assumed): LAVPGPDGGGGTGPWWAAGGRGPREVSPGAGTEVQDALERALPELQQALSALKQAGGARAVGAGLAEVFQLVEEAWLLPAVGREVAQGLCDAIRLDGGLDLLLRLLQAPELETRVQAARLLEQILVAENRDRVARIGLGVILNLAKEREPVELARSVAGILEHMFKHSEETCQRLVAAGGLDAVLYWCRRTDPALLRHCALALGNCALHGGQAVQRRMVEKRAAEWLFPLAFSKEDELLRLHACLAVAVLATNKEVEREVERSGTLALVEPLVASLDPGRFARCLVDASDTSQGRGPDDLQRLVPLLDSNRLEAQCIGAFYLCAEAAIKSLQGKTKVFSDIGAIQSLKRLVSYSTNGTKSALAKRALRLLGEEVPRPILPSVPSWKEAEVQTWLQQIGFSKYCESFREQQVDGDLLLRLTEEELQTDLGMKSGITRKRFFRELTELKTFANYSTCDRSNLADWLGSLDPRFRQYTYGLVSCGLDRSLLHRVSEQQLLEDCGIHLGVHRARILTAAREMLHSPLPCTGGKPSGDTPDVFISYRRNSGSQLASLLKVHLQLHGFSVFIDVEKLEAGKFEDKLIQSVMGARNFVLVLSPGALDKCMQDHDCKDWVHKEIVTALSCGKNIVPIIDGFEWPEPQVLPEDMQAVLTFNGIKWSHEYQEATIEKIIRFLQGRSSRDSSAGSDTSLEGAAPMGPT
Test: In vitro biochemical assay for inhibiting SARM1 enzyme activity (PC6 fluorescence, NADase)
Settings: full-length SARM1 from transfected HEK293 cells; 50 µM NAD, 50 µM PC6, 50 µM NMN activator; room temperature, 30 minutes; read-out: IC50
Experimental: The gene sequence of SARM1 protein was amplified using PCR, and the PCR amplification product was constructed into pcDNA3.1-HIS-C plasmid. The above construction was completed by YouBio(Hunan, China). HEK293 cells were cultured in 10 cm dishes using DMEM, and the cells were transfected with 15 μg pcDNA3.1-SARM[…]-C expression plasmid on the following day. […]

O=C(CCc1ccc(F)cc1)Nc1ccc2c(c1)COc1cncc(Cl)c1-2 = 100 to 1000 nM
O=C(CCc1ccccc1)Nc1cnc2c(c1)COc1cnccc1-2 = < 100 nM
O=C(CNc1ccc(F)cc1)Nc1ccc2c(c1)COc1cnccc1-2 = < 100 nM
COc1ccc(CCC(=O)Nc2ccc3c(c2)COc2cnccc2-3)cc1 = 100 to 1000 nM
O=C1C(Cc2ccc(F)cc2)CCN1c1ccc2c(c1)COCc1cnccc1-2 (stereo not drawn) = 1000 to 10000 nM
CN1Cc2cnccc2-c2ccc(NC(=O)CCc3ccc(F)cc3)cc2C1 = 100 to 1000 nM
O=C(CCc1cccs1)Nc1ccc2c(c1)COc1cnccc1-2 = < 100 nM
O=C(CCc1ccc(Cl)c(Cl)c1)Nc1ccc2c(c1)COc1cnccc1-2 = < 100 nM

Input: IC50 lookup needed for O=C(CCc1ccc(Cl)cc1)Nc1ccc2c(c1)COc1cnccc1-2 , thanks.
Output: < 100 nM

Input: IC50 lookup needed for O=C(CCc1ccc([N+](=O)[O-])cc1)Nc1ccc2c(c1)COc1cnccc1-2 , thanks.
Output: 1000 to 10000 nM

Input: IC50 lookup needed for O=C1C(Cc2ccc(F)cc2)CCN1c1ccc2c(c1)COc1cnccc1-2 (stereo not drawn) , thanks.
Output: < 100 nM

Input: IC50 lookup needed for O=C1C(Cc2cc(F)c(F)c(F)c2)CCN1c1ccc2c(c1)COc1cnccc1-2 (stereo not drawn) , thanks.
Output: 1000 to 10000 nM

Input: IC50 lookup needed for O=C(CCc1cccc2ccccc12)Nc1ccc2c(c1)COc1cnccc1-2 , thanks.
Output: 1000 to 10000 nM

Input: IC50 lookup needed for O=C(NCc1ccc(Cl)nc1)Nc1ccc2c(c1)COc1cnccc1-2 , thanks.
Output: 100 to 1000 nM

Input: IC50 lookup needed for O=C(CCc1cc(F)cc(F)c1)Nc1ccc2c(c1)COc1cnccc1-2 , thanks.
Output: < 100 nM

Input: IC50 lookup needed for O=C1C(Cc2cccc(Cl)c2)CCN1c1ccc2c(c1)COc1cnccc1-2 (stereo not drawn) , thanks.
Output: 1000 to 10000 nM

Input: IC50 lookup needed for O=C(CCc1cccc(F)c1)Nc1ccc2c(c1)COc1cnccc1-2 , thanks.
Output: < 100 nM

Input: IC50 lookup needed for O=C(NCc1cc(F)cc(F)c1)Nc1ccc2c(c1)COc1cnccc1-2 , thanks.
Output: 100 to 1000 nM
